All values here come from paper PMC6726392.

ASSAY SYSTEM: kappa opioid receptor (KOR); human KOR (Homo sapiens)
Sequence (P41145 whole entry): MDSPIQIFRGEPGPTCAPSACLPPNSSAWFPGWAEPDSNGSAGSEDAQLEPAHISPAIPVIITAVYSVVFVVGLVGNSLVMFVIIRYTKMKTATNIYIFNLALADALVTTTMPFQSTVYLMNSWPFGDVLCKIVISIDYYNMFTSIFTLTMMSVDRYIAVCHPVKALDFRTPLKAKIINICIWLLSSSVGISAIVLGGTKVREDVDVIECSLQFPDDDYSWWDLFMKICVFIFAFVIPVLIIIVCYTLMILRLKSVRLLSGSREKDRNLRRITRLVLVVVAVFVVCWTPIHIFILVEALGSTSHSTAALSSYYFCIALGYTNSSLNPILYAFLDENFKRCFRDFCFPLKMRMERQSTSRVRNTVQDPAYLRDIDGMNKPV
ASSAY EXPLANATION: […]GTPγS binding stimulation, membranes
pEC50: −log10 of the molar value.

| COMPOUND STRUCTURE STRING | pEC50 |
| --- | --- |
| Cc1cc(O)cc(C)c1C[C@H](N)C(=O)N1CCc2ccc(Cc3ccccc3)cc2C1 | 7.48 |
| Cc1cc(O)cc(C)c1C[C@H](N)C(=O)N1CCc2cccc(Cc3ccccc3)c2C1 | 6.50 |

====

ASSAY SYSTEM: delta opioid receptor (DOR); rat DOR (Rattus norvegicus)
Sequence (P33533 whole entry): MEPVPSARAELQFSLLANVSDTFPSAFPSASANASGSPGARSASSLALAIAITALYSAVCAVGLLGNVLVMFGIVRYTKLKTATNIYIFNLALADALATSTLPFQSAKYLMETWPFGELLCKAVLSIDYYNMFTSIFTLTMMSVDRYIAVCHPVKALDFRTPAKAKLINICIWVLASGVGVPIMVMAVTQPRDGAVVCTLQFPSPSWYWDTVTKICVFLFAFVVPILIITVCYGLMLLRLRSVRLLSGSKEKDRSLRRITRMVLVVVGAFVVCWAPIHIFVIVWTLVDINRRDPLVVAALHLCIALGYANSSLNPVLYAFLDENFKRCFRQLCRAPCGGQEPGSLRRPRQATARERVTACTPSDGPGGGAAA
ASSAY EXPLANATION: [3H]diprenorphine competitive displacement, membranes
Ki listing for selected molecules.
RESULT TYPE: Ki (nM)

| MOLECULE | RESULT TYPE | ENDPOINT RESULT |
| --- | --- | --- |
| Cc1cc(O)cc(C)c1C[C@H](N)C(=O)N1CCc2cccc(Cc3ccccc3)c2C1 [4d, 8-Bn Dmt-Tiq analogue 4d] | Ki | 185 |
| Cc1cc(O)cc(C)c1C[C@H](N)C(=O)N1CCc2cc(Cc3ccccc3)ccc2C1 [4b, 6-Bn Dmt-Tiq analogue 4b] | Ki | 4.3 |
| Cc1cc(O)cc(C)c1C[C@H](N)C(=O)N1CCc2c(Cc3ccccc3)cccc2C1 [4a, 5-Bn Dmt-Tiq analogue 4a] | Ki | 3.3 |
| Cc1cc(O)cc(C)c1C[C@H](N)C(=O)N1CCc2ccc(Cc3ccccc3)cc2C1 [4c, 7-Bn Dmt-Tiq analogue 4c] | Ki | 6.1 |

====

ASSAY SYSTEM: UniProt P33535
Sequence (P33535 whole entry): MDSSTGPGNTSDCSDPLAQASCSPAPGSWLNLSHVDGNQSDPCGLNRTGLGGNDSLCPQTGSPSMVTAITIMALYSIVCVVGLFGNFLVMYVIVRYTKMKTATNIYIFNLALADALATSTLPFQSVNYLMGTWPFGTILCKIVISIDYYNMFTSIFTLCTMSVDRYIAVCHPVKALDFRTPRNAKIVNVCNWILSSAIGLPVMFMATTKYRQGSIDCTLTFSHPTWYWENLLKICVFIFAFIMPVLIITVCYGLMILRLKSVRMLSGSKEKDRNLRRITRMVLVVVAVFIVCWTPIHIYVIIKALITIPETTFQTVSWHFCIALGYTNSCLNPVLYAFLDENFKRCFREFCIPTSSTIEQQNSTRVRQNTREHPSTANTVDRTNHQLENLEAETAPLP
ASSAY EXPLANATION: [3H]diprenorphine competitive displacement, membranes
pKi: −log10 of the molar value.
Collected pKi values appear next to each entry.
RESULT TYPE: pKi

| COMPOUND STRUCTURE STRING | ASSAY SYSTEM | ENDPOINT RESULT |
| --- | --- | --- |
| Cc1cc(O)cc(C)c1C[C@H](N)C(=O)N1CCc2c(Cc3ccccc3)cccc2C1 | UniProt P33535 | 7.77 |
| Cc1cc(O)cc(C)c1C[C@H](N)C(=O)N1CCc2cccc(Cc3ccccc3)c2C1 | UniProt P33535 | 8.39 |
| Cc1cc(O)cc(C)c1C[C@H](N)C(=O)N1CCc2ccc(Cc3ccccc3)cc2C1 | UniProt P33535 | 8.57 |
| Cc1cc(O)cc(C)c1C[C@H](N)C(=O)N1CCc2cc(Cc3ccccc3)ccc2C1 | UniProt P33535 | 8.00 |
